Target: PvXyd3A (Paecilomyces variotii, UniProt A0A443HSR8)
Construct: native secreted enzyme purified from culture supernatant (Brewer's Spent Grain); 78 kDa; pI between 3 and 4; GH3; once misprinted PvXyd11A
Sequence (A0A443HSR8 28-800): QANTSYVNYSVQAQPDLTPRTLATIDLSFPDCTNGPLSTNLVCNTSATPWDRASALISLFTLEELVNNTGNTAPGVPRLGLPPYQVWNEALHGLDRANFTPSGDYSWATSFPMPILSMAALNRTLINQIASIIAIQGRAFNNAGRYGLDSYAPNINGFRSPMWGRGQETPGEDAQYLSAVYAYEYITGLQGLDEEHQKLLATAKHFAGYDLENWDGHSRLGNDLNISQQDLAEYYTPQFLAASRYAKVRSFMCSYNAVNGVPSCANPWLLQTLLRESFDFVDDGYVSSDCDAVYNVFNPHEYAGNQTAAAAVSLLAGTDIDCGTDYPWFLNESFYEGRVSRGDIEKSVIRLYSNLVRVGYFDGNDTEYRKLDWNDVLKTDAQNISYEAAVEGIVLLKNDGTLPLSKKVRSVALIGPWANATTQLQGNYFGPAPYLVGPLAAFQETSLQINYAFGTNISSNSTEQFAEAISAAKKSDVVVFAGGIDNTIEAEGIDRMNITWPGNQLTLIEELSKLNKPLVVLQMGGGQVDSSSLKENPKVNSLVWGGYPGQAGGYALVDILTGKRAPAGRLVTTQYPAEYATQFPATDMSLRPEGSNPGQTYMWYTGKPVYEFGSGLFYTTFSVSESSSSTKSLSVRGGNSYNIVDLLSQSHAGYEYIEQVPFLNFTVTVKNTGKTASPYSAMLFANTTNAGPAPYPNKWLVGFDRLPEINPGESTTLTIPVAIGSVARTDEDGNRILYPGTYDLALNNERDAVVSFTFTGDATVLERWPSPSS
Assay: pNP-X hydrolysis initial rates, Lineweaver-Burk
Conditions: competitive; substrate pNP-X; xylose at 5, 20 and 50 mM; methods text misprints the enzyme as Xyn3A
Metric: pKi
Reminder that pKi is minus the log10 of a molar concentration.

QUERY: Which pKi reading was recorded for the molecule OC1OC[C@@H](O)[C@H](O)[C@H]1O (stereo partly shown) ?
RESULT: 1.99
